B1: TPR 5TU (parent)
chain: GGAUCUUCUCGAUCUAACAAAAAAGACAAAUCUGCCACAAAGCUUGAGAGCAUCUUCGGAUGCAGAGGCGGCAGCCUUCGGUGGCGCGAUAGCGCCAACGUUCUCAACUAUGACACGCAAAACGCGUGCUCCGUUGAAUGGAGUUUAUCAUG

# Variants of: B1
# Measurement Description: polymerase ribozyme fitness, log enrichment relative to wild type (log ratio); higher = more active; in vitro selection for triplet polymerase activity
This sample holds only a part of the variants without activity.
Let's look at some variants and their measured polymerase ribozyme fitness (log ratio).

The following variants have reported results that may help.
[[record]]
variant_key = "A60U U77A"
endpoint_label = "polymerase ribozyme fitness (log ratio)"
result = "≤ -4.2"

[[record]]
variant_key = "G84U C87G G88C G143C"
endpoint_label = "polymerase ribozyme fitness (log ratio)"
result = "≤ -4.2"

[[record]]
variant_key = "C69G C76G C96A A138G"
endpoint_label = "polymerase ribozyme fitness (log ratio)"
result = "≤ -4.2"

[[record]]
variant_key = "C10U A22U C79A G83C A106U"
endpoint_label = "polymerase ribozyme fitness (log ratio)"
result = "≤ -4.2"

[[record]]
variant_key = "U15G A26G A52U U53A G65A G80U C87G C96G A97G C108G"
endpoint_label = "polymerase ribozyme fitness (log ratio)"
result = "≤ -4.2"


Quick note, polymerase ribozyme fitness (log ratio) for U7G U15A G58U G70C A91G landed at ≤ -4.2

Quick note, polymerase ribozyme fitness (log ratio) for G68C U104G C105G C118U G133C landed at ≤ -4.2

Quick note, polymerase ribozyme fitness (log ratio) for C10U A41U G70C G83U C108U U134A A142G landed at ≤ -4.2

Quick note, polymerase ribozyme fitness (log ratio) for C38A G94U G143U landed at ≤ -4.2

Quick note, polymerase ribozyme fitness (log ratio) for C18A A30G C38U G48C G71A A89U C96U A97C landed at ≤ -4.2

Quick note, polymerase ribozyme fitness (log ratio) for A23U U55A G88A C114A G136C landed at ≤ -4.2

Quick note, polymerase ribozyme fitness (log ratio) for C32U C69G C72U G88C U135G landed at ≤ -4.2
